- Tested on: PBMC
- Protocol Text: Antiproliferative activity against PHA-stimulated human PBMC at 20 ug/mL after 72 hrs by MTT assay relative to control
- Format: cell-based
Label t when Activity >= 90%; otherwise f.

CC1(C)C2CC=C(/C=N/NC(N)=O)C1C2 (centres undefined)
t

Reported Activity reaches at least 90% for CC(C)=CCC/C(C)=N\NC(N)=O ? t

* * *

- Test system: PBMC
- Protocol Text: Antiproliferative activity against PHA-stimulated human PBMC at 20 ug/mL after 72 hrs by MTT assay relative to control
- Assay type: cell-based
# Activity values compiled below
State the answer as a number, implicitly in %.

Known results for molecules:
COc1cc(/C=N/NC(N)=S)cc(OC)c1OC
78
CN(C)c1ccc(/C=N/NC(N)=O)cc1
84
CC/C(=N/NC(N)=S)C(C)CC=C(C)C (configuration not stated)
60
COc1cc(/C=N/NC(N)=O)ccc1O
116
COc1ccc(/C=N/NC(N)=S)cc1
90
CC(C)=CCC/C(C)=N\NC(N)=S
98
CCCC/C(CC)=N\NC(N)=O
89
CC/C(=N/NC(N)=O)C(C)CC=C(C)C (configuration not stated)
0

Note to self: Activity recorded for COc1ccc(/C=N/NC(N)=O)cc1 was 141

Short answer for COc1ccc(/C=N/NC(N)=O)cc1OC : Activity was 80

The molecule identified as CC1(C)C2CC=C(/C=N/NC(N)=S)C1C2 (configuration not stated) registered its Activity at 76

Value of measured Activity for the entry COc1cc(/C=N/NC(N)=O)cc(OC)c1OC : 107
